target: T1, human glypican-3 (GPC3) (human, UniProt P51654 25-554); experiment: flow cytometry on JHH-7 cells (GPC3-high);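 note: antibody binding at 4 °C for 24 h, detected with anti-human AF647 secondary, geometric mean fluorescence of live cells versus antibody concentration, fitted as specific binding with Hill slope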
T1 construct: Endogenous on JHH-7, JHH-5, HepG2 and NCI-H446 tumour cells, or transiently expressed on CHO-S cells from a pTT5 plasmid; also called hGPC3; huGPC3
Outcome Measure: Bmax (MFI)

Here is how some binders turned out for Bmax (MFI).
- Binder: "H18L6_LC_G34E mAb, v40204 (antibody, human IgG1, kappa, V domains shown, M3-H18L6 chains with the stated light chain point mutation, IgG1/kappa) VH: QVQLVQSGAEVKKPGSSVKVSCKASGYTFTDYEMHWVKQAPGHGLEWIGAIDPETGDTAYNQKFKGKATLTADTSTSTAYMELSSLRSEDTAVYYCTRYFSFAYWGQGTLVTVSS VL: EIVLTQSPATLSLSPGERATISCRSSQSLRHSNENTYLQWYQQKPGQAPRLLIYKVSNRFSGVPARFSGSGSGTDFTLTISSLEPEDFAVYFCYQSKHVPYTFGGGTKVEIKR"
  Bmax (MFI): "12500 MFI"
- Binder: "H18L6_LC_G34H mAb, v40205 (antibody, human IgG1, kappa, V domains shown, M3-H18L6 chains with the stated light chain point mutation, IgG1/kappa) VH: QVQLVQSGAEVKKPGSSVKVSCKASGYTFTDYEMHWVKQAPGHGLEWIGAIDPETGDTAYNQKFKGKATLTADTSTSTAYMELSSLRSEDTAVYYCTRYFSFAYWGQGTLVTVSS VL: EIVLTQSPATLSLSPGERATISCRSSQSLRHSNHNTYLQWYQQKPGQAPRLLIYKVSNRFSGVPARFSGSGSGTDFTLTISSLEPEDFAVYFCYQSKHVPYTFGGGTKVEIKR"
  Bmax (MFI): "12500 MFI"
- Binder: "H18L6_LC_G34Q mAb, v40208 (antibody, human IgG1, kappa, V domains shown, Full-size IgG1/kappa) VH: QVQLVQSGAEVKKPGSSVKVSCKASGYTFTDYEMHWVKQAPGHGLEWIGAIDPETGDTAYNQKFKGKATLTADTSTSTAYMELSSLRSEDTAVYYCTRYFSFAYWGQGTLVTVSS VL: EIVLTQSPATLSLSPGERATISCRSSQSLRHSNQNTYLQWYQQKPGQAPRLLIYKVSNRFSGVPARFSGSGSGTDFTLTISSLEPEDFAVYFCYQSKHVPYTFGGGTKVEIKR"
  Bmax (MFI): "11600 MFI"
- Binder: "H18L6_LC_G34D mAb, v40203 (antibody, human IgG1, kappa, V domains shown) VH: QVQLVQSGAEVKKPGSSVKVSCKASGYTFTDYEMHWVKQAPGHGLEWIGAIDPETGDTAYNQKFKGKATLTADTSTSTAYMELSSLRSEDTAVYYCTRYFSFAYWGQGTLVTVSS VL: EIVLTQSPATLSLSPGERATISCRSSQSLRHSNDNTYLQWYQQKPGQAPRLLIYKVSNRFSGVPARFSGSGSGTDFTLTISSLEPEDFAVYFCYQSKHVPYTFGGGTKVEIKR"
  Bmax (MFI): "12200 MFI"

### Prompt Tell me measured Bmax (MFI) for codrituzumab (v37575) (antibody, human IgG1, kappa, V domains shown, also called GC33; RG-7686) VH: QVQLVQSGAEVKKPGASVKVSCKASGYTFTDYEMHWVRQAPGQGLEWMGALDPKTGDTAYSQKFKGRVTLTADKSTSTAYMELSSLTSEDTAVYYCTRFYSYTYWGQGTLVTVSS VL: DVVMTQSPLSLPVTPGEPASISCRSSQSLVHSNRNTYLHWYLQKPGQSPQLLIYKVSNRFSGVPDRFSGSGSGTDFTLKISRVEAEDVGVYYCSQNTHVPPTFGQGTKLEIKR please.
### Response 14800 MFI

// data source = patent US20250295799A1
